Every entry's value here was drawn from patent US20250163051A1.

Assignment: determine reported CC50 at 24 h for the given molecules.
Test: Cell toxicity (Celltiter-Glo) in HEK-Blue hTLR8 cells
Conditions: human

Here's what some known entries look like.
INSERT INTO results (molecule, parameter_measured, reported_measurement) VALUES
  ('C=CCCN(Cc1c[nH]c(=O)cc1-c1cnc2c(N[C@@](C)(CO)CCCC)nc(N)nc2c1)C(C)C [Example 19]', 'CC50 at 24 h', '> 100 µM'),
  ('CCCC[C@](C)(CO)Nc1nc(N)nc2cc(-c3cc(=O)[nH]cc3CN(C)CCOC)cnc12 [Example 21]', 'CC50 at 24 h', '> 100 µM');

Please supply CC50 at 24 h for each of the following items, keeping them in order.
1. C=CCC(=O)N(C)Cc1c[nH]c(=O)cc1-c1cnc2c(N[C@@](C)(CO)CCCC)nc(N)nc2c1 [Example 40]
2. CCCC[C@](C)(CO)Nc1nc(N)nc2cc(-c3cc(=O)[nH]cc3CN3CCNCC3)cnc12 [Example 15]
3. CC#CCN(C)Cc1c[nH]c(=O)cc1-c1cnc2c(N[C@@](C)(CO)CCCC)nc(N)nc2c1 [Example 27]
4. CCCC[C@](C)(CO)Nc1nc(N)nc2cc(-c3cc(=S)[nH]cc3CN(C)CCOC)cnc12 [Example 66]

Ans.
> 100 µM
> 100 µM
> 100 µM
> 100 µM

----------
Target: hTLR7 (Homo sapiens, UniProt Q9NYK1)
Experiment: Agonistic activity on human TLR7 in HEK-Blue hTLR7 cells (QUANTI-Blue)
Conditions: 24 h incubation, OD650, read-out: hTLR 7 EC50
Exercise: for every item that follows, state its recorded EC50.

// solved cases for EC50 follow
INSERT INTO assay_data (molecule, reported_measurement) VALUES
  ('CCCC[C@](C)(CO)Nc1nc(N)nc2cc(-c3cc(=O)[nH]cc3CN(C)CCOC)cnc12', '90.3 µM'),
  ('CCCCN(C)Cc1cn(C)c(=O)cc1-c1ccc2c(N[C@@](C)(CO)CCCC)nc(N)nc2c1', '11.1 µM'),
  ('CCCC[C@](C)(CO)Nc1nc(N)nc2cc(-c3cc(=O)n(C)cc3CN3CCCCC3)ccc12', '> 100 µM');

Would you be so kind as to report EC50 for each listed record?
1. CCCC[C@](C)(CO)Nc1nc(N)nc2cc(-c3cc(=O)[nH]cc3CN(C)CCOC)ccc12
2. CCCC[C@](C)(CO)Nc1nc(N)nc2cc(-c3cc(=O)[nH]cc3CN3CCN(C)CC3)cnc12
3. CCCCN(C)Cc1c[nH]c(=O)cc1-c1cnc2c(N[C@@](C)(CO)CCCC)nc(N)nc2c1 [Example 28]

Ans.
> 100 µM
> 100 µM
29.5 µM

Batch: EC50 for all items listed.
1. C=CCCN(CCC=C)Cc1c[nH]c(=O)cc1-c1cnc2c(N[C@@](C)(CO)CCCC)nc(N)nc2c1
2. CCCC[C@](C)(CO)Nc1nc(N)nc2cc(-c3cc(=O)[nH]cc3CNCCOC)ccc12
3. CCCC[C@](C)(CO)Nc1nc(N)nc2cc(-c3cc(=O)[nH]cc3CN3CCN(C(C)(C)C)CC3)cnc12
4. CCCC[C@](C)(CO)Nc1nc(N)nc2cc(-c3cc(=O)n(C)cc3CN(C)CCC3CC3)cnc12

Ans.
["81.5 µM", "> 100 µM", "> 100 µM", "> 100 µM"]

# return EC50 for each item in the list
1. CCCC[C@](C)(CO)Nc1nc(N)nc2cc(-c3cc(=O)[nH]cc3CN(C)CCNC)cnc12
2. CCCC[C@](C)(CO)Nc1nc(N)nc2cc(-c3cc(=O)n(C)cc3CNCCOC)ccc12
3. CCCC[C@](C)(CO)Nc1nc(N)nc2cc(-c3cc(=O)[nH]cc3CN3CCSCC3)cnc12

Ans.
["> 100 µM", "> 100 µM", "> 100 µM"]

Batch request: EC50 for each of the following molecules.
1. CCCCNCc1cn(C)c(=O)cc1-c1ccc2c(N[C@@](C)(CO)CCCC)nc(N)nc2c1
2. CCCCNCc1c[nH]c(=O)cc1-c1ccc2c(N[C@@](C)(CO)CCCC)nc(N)nc2c1
3. CCCC[C@](C)(CO)Nc1nc(N)nc2cc(-c3cc(=O)n(C)cc3CN(C)CCO)ccc12

Ans.
> 100 µM
> 100 µM
> 100 µM

----------
Molecular target: CYP3A4 (Homo sapiens, UniProt P08684)
Construct: from tissue; host or cells: human liver microsomes
Sequence (P08684 whole entry): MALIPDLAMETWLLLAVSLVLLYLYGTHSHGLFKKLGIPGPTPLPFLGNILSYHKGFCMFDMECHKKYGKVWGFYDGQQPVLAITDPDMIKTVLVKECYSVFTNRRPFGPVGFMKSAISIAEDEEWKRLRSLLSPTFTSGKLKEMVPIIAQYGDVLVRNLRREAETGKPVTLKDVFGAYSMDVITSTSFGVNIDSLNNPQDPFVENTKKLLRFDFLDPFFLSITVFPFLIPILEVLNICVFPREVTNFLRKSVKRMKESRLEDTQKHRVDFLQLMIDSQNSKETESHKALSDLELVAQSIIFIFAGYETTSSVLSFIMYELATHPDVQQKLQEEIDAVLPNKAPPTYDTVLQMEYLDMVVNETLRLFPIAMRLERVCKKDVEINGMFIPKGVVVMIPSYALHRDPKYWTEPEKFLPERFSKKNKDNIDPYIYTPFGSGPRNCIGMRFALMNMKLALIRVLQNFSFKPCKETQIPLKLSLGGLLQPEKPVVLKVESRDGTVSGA
Test: Inhibition of human liver microsomal CYP3A4
Assay type: in vitro ADME
Details: probe Testosterone; human liver microsomes, 10 μM test substance, substrate Testosterone; read-out: Relative inhibition rate (%) CYP3A4 (Testosterone)
parameter.measured: inhibition at 10 µM (%)
Give bare numbers, in %.

INSERT INTO assay_data (line_notation, assay_target, unit_abbrev, reported_measurement) VALUES
  ('CCCC[C@](C)(CO)Nc1nc(N)nc2cc(-c3cc(=O)n(C)cc3CN3CCCCC3)ccc12', 'CYP3A4 (Homo sapiens, UniProt P08684)', '%', 6.3),
  ('CCCC[C@](C)(CO)Nc1nc(N)nc2cc(-c3cc(=O)[nH]cc3CN(C)CCOC)ccc12', 'CYP3A4 (Homo sapiens, UniProt P08684)', '%', 8.9),
  ('CCCC[C@](C)(CO)Nc1nc(N)nc2cc(-c3cc(=O)[nH]cc3COC)cnc12', 'CYP3A4 (Homo sapiens, UniProt P08684)', '%', 34.1);

Please look at the following molecule next.
Qu. Please look at this molecule and report its inhibition at 10 µM: `CCCCN(C)Cc1cn(C)c(=O)cc1-c1ccc2c(N[C@@](C)(CO)CCCC)nc(N)nc2c1`
Ans. 15.6

----------
Kindly supply the reported CYP2B6 Induction percentage relative to positive control (%) values for the records listed here.
Test system: CYP2B6
Experiment: Induction of CYP2B6 in frozen human hepatocytes
Assay type: in vitro ADME
Settings: 72 h induction, positive control Phenobarbital, concentration and readout not stated
One number for each entry, in %.

INSERT INTO results (molecule, reported_measurement) VALUES
  ('C=CCCN(C)Cc1c[nH]c(=O)cc1-c1ccc2c(N[C@@](C)(CO)CCCC)nc(N)nc2c1 [Example 35]', '−5.6');

// for each molecule in input: emit CYP2B6 Induction percentage relative to positive control (%)
1. CCCC[C@](C)(CO)Nc1nc(N)nc2cc(F)cnc12 [Comparative compounds, reference compound]
2. C=CCCN(C)Cc1c[nH]c(=O)cc1-c1cnc2c(N[C@@](C)(CO)CCCC)nc(N)nc2c1 [Example 9]
3. CCCCN(C)Cc1c[nH]c(=O)cc1-c1cnc2c(N[C@@](C)(CO)CCCC)nc(N)nc2c1 [Example 28]
4. CCCC[C@](C)(CO)Nc1nc(N)nc2cc(-c3cc(=O)[nH]cc3CN(C)CCOC)cnc12 [Example 21]
5. CCCC[C@](C)(CO)Nc1nc(N)nc2cc(-c3cc(=O)n(C)cc3CN3CCCCC3)ccc12 [Example 8]

Ans.
1: 24.5; 2: 4.2; 3: −0.7; 4: −4.8; 5: −4.1

----------
I'd be grateful if you could share measured pEC50 for these entries.
Biological target: hTLR7 (Homo sapiens, UniProt Q9NYK1)
Sequence (Q9NYK1 27-1049): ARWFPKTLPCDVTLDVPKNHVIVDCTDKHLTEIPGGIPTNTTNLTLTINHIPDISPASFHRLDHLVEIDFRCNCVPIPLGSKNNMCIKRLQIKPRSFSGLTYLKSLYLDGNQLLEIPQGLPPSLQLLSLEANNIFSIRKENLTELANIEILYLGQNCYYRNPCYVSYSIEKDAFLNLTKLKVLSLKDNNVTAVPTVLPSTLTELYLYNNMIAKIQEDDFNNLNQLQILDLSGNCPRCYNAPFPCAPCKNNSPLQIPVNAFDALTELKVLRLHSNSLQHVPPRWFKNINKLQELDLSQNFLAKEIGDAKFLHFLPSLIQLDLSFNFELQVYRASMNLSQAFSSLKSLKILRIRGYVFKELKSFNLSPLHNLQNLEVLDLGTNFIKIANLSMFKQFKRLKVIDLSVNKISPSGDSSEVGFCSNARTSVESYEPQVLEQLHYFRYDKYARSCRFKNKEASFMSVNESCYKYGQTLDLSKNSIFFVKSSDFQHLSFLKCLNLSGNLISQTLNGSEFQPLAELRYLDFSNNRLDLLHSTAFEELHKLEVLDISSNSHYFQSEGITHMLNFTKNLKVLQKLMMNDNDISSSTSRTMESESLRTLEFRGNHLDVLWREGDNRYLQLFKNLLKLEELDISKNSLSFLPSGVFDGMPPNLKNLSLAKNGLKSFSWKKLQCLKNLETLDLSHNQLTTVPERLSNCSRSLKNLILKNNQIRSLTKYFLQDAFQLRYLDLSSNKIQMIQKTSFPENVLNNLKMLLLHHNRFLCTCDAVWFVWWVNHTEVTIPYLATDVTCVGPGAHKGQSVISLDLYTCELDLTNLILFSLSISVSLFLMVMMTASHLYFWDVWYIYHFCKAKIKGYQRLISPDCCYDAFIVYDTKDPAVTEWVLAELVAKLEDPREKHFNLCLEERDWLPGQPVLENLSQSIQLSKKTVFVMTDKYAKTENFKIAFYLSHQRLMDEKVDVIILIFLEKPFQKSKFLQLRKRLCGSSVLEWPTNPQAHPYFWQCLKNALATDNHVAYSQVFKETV
Test: Agonistic activity on human TLR7 in HEK-Blue hTLR7 cells (QUANTI-Blue)
Conditions: 24 h incubation, OD650, read-out: hTLR 7 EC50
pEC50: −log10 of the molar value.

// worked examples, pEC50 included
INSERT INTO measurements (compound, reported_measurement) VALUES
  ('C=CCCOCc1c[nH]c(=O)cc1-c1cnc2c(N[C@@](C)(CO)CCCC)nc(N)nc2c1', 4.52),
  ('CCCC[C@](C)(CO)Nc1nc(N)nc2cc(-c3cc(=O)n(C)cc3CN(C)CCc3ccccc3)cnc12', 4.14),
  ('C=CCCN(CC)Cc1c[nH]c(=O)cc1-c1cnc2c(N[C@@](C)(CO)CCCC)nc(N)nc2c1', '< 4.00');

Hi! Can you tell me pEC50 for each of these compounds?
1. C=CCCN(CCC=C)Cc1cn(C)c(=O)cc1-c1cnc2c(N[C@@](C)(CO)CCCC)nc(N)nc2c1
2. C=CCC(=O)N(C)Cc1c[nH]c(=O)cc1-c1cnc2c(N[C@@](C)(CO)CCCC)nc(N)nc2c1
3. CCCC[C@](C)(CO)Nc1nc(N)nc2cc(-c3cc(=O)n(C)cc3CN3CCNCC3)cnc12
4. C=CCCN(C)C(=O)c1c[nH]c(=O)cc1-c1cnc2c(N[C@@](C)(CO)CCCC)nc(N)nc2c1
5. C=CCCN(Cc1c[nH]c(=O)cc1-c1cnc2c(N[C@@](C)(CO)CCCC)nc(N)nc2c1)C(C)C

Ans.
< 4.00
< 4.00
< 4.00
< 4.00
< 4.00
